molecules and their reported EC50
Biological target: Adenosine receptor A2b (Homo sapiens)
Sequence (P29275 whole entry): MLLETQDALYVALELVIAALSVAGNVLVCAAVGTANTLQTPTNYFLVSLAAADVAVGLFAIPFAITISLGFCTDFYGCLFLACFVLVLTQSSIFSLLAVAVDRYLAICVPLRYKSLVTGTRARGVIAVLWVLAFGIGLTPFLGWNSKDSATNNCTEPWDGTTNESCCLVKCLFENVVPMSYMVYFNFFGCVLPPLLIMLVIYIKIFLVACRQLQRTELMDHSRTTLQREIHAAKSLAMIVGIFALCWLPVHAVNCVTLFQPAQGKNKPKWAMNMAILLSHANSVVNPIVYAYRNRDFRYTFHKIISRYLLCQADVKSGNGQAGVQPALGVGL
Test: Potency against cAMP formation in CHO cells expressing recombinant human A2B receptor

CCn1nnc([C@H]2O[C@@H](n3cnc4c(N)nc(N[C@H](CO)Cc5ccc([N+](=O)[O-])cc5)nc43)[C@H](O)[C@@H]2O)n1 :: 1200 nM

Task: # EC50 lookup, item "CCn1nnc([C@H]2O[C@@H](n3cnc4c(N)nc(N[C@H](CO)Cc5ccc(OC)cc5)nc43)[C@H](O)[C@@H]2O)n1"
Output: 680 nM

Task: Look at this molecule and give its reported EC50. "CCn1nnc([C@H]2O[C@@H](n3cnc4c(N)nc(N[C@H](CO)Cc5ccc(Br)cc5)nc43)[C@H](O)[C@@H]2O)n1"
Output: 560 nM

Task: What does the data say about its EC50? Entry: "CCn1nnc([C@H]2O[C@@H](n3cnc4c(N)nc(N[C@H](CO)Cc5ccc(Cl)cc5)nc43)[C@H](O)[C@@H]2O)n1"
Output: 4700 nM

----------
Target: Adenosine receptor A2a (Homo sapiens, UniProt P29274)
Sequence (P29274 whole entry): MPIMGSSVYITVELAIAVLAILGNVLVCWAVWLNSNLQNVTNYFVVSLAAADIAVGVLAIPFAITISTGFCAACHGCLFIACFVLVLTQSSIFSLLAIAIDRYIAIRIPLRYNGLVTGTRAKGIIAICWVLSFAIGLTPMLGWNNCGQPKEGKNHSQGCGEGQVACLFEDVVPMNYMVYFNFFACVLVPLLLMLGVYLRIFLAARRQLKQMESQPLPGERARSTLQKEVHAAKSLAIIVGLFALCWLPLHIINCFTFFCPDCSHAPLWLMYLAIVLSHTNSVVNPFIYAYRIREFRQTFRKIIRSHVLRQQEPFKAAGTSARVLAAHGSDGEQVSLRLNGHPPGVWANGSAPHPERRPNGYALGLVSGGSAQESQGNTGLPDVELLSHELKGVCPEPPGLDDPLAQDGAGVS
OBSERVATION_TYPE: pEC50
The scale used: pEC50 is minus the common logarithm of the concentration in molar units.

Past entries and their recorded results:
CCn1nnc([C@H]2O[C@@H](n3cnc4c(N)nc(N[C@H](C)Cc5ccc(OC)cc5)nc43)[C@H](O)[C@@H]2O)n1 :: 8.52
CCn1nnc([C@H]2O[C@@H](n3cnc4c(N)nc(N[C@H](CO)Cc5ccc([N+](=O)[O-])cc5)nc43)[C@H](O)[C@@H]2O)n1 :: 8.51
CCn1nnc([C@H]2O[C@@H](n3cnc4c(N)nc(N[C@H](CO)Cc5ccc(Cl)cc5)nc43)[C@H](O)[C@@H]2O)n1 :: 7.01
CCn1nnc([C@H]2O[C@@H](n3cnc4c(N)nc(N[C@H](CO)Cc5ccc(OC)cc5)nc43)[C@H](O)[C@@H]2O)n1 :: 8.85
CCn1nnc([C@H]2O[C@@H](n3cnc4c(N)nc(N[C@H](CO)Cc5ccc(Br)cc5)nc43)[C@H](O)[C@@H]2O)n1 :: 8.80
CCn1nnc([C@H]2O[C@@H](n3cnc4c(N)nc(N[C@H](CO)Cc5ccccc5)nc43)[C@H](O)[C@@H]2O)n1 :: 8.06

Task: Reported pEC50 for Adenosine receptor A2a (Homo sapiens, UniProt P29274), given "CCn1nnc([C@H]2O[C@@H](n3cnc4c(N)nc(N[C@H](CO)Cc5ccc(O)cc5)nc43)[C@H](O)[C@@H]2O)n1" ?
Output: 8.10

----------
Quick record of Ki values for Adenosine receptor A2a (Homo sapiens).
Express it in nM; write the number only.

Task: Item: "CCn1nnc([C@H]2O[C@@H](n3cnc4c(N)nc(N[C@H](CO)Cc5ccccc5)nc43)[C@H](O)[C@@H]2O)n1" Test system: Adenosine receptor A2a (Homo sapiens) Read-out: Ki Value: ?
Output: 46

Task: # query: Ki | item "CCn1nnc([C@H]2O[C@@H](n3cnc4c(N)nc(N[C@H](C)Cc5ccc(OC)cc5)nc43)[C@H](O)[C@@H]2O)n1" | system: Adenosine receptor A2a (Homo sapiens)
Output: 1

Task: Please state recorded Ki (tested on Adenosine receptor A2a (Homo sapiens)) of "CCn1nnc([C@H]2O[C@@H](n3cnc4c(N)nc(N[C@H](CO)Cc5ccc(O)cc5)nc43)[C@H](O)[C@@H]2O)n1"
Output: 5

The values you see were collected from ChEMBL document CHEMBL1137202.
